Tested on: MS2 coat protein
protocol: apparent KD of MS2 coat protein; higher = weaker reporter binding
assay conditions: Eterna round: R107; input ligand: theophylline 2 mM
Hi, to clarify the labels: MET covers apparent KD of MS2 coat protein from 0.02 µM upward, NOT MET covers anything below 0.02 µM.

>>> group_label("GGGCAAGAGGGAAGGAGCGUCGGCUGAGUAACAUGAGGAUCACCCAUGUAGCACAUAGUGUGGCAGGUAGGUCGCCCUCUGCCCU [SS-ArgB7]")
"NOT MET"
>>> group_label("GUAGCGACGACGGCCGCCACUCACAGGUGAGGGUAGACCAACCUUCACAUGAGGAUCACCCAUGUGAGGACCGGGUUGUCGCUAC [#12 Exclusion Tryptophan B]")
"MET"
>>> group_label("AAUAAAUCGCCUGAUACCAGCGCUGGCGGACAUGAGGAUCACCCAUGUGUUACAGGCGGACGCCCUUGGCAGCGGAGCGGGAUCU [U-Shape]")
"MET"
>>> group_label("AAUGCCGGAUCGGCCGCCACUGGUUGGCUCUGUGUACAUGAGGAUCACCCAUGUCCAUCCCAAACCAGGACCGGGAUCUUUGUGU [Veonmale]")
"NOT MET"
>>> group_label("GGACUAACCAGAAGGAGCGGCACGCAGAAACUGCAAAAUCCUCCGCACGAGGAUCACCCGUGUCAGGUAGGUCGCUGGUUAGUCG [ArgBX 28]")
"MET"
>>> group_label("GCACGGUAGUCGGCCGCCACUGAAACAUGUGUCUACAUGAGGAUCACCCAUGUGGGUGUGUUUUGUAGGACCGGGACAAGACCCG [#11 Same State - Tryptophan B]")
"NOT MET"
>>> group_label("CAAAUAAGAACAAACAAAUAACGGUUUUCGCGAGGACCGGUACGGCCGCCACUCGUGUGAAAUAACACAUGAGGAUCACCCAUGU [3'end-1]")
"MET"
>>> group_label("GUCGCUGAGGGAAGGAGCGUGAAGACAUGAGGAUCACCCAUGUAGAGGCGCCGAAGGCGUUCGCAGGUAGGUCGCCCUCAGUGAC [#1 Same State - Arginine B Attempt #22 (HarryS)]")
"NOT MET"
>>> group_label("UUAUAAGUACCGGUCCUCAGAUCCUCAUGACGAGGACCGGUACGGCCGCCACUCGAAACAUGAGGAUCACCCAUGUAAUAAUACC [Brourdmod12]")
"MET"
>>> group_label("GGCGCGAGCCAACAUGAGGAUCACCCAUGUCGAGGACCGGUACGGCCGCCACUCGAACGAGUGGCGCGCGCGCGCGCGCGCGCGC [Vaa]")
"NOT MET"

====

Test system: MS2 coat protein
protocol: apparent KD of MS2 coat protein; designed switch direction (-1 OFF switch, 1 ON switch): 1; higher = weaker reporter binding
assay conditions: input ligand: FMN 200 uM
Below is a list of entries, each paired with its recorded apparent KD of MS2 coat protein value.
measured parameter: apparent KD of MS2 coat protein (nM)

>>> observed_result("CUAGCGCAUGCAGGAUAUCUGGUGUAUGCCUCGAGAUAACAUGAGGAUCACCCAUGUCCGCUCAAAGAGAAGGGCAUGCAAAUG [Eternabot solution 8] (Eterna round: R96, puzzle: Same State NG 2)")
1180
>>> observed_result("AAAAUGGUAUGUUACAUGAGGAUCACCCAUGUACUCUAAUCUGAGGAUAUGGGAAUGUAGAAGAACCAGAAGGCAGACAUCCAA [AK SSNG3-V2-22.1] (Eterna round: R96, puzzle: Same State NG 3)")
149
